// provenance: BindingDB's records for doi:10.7270/Q2N014XN

# target or system: Diphosphomevalonate decarboxylase (Streptococcus pneumoniae serotype 2 (strain D39 / NCTC 7466), UniProt A0A0H2ZN59)
# test summary: diphosphomevalonate decarboxylase inhibition dose curves – biochemical, PK/LDH-coupled NADH fluorescence, hexokinase coupling counter-screen, dose response (AID 550)
pIC50: −log10 of the molar value.
# pIC50 values compiled below

molecule | censoring qualifier | pIC50
c1ccc(-c2nc3nonc3c3nc4ccccc4n23)cc1 | < | 2.00
Cn1c(=O)[nH]c(=O)c2c1nc(NC1CCCCC1)n2Cc1ccccc1 [MLS000083828] | < | 2.00
CCOC(=O)CC(=O)CSc1ccc2nnc(-c3ccc(C)cc3)n2n1 | = | 3.54
CCOC(=O)Cc1csc(-n2sc3ccccc3c2=O)n1 [MLS000082162] | = | 5.12
Cc1nc2cc(NC(=O)NCc3ccco3)ccc2n1C | < | 2.00
Cn1ncc2c(Nc3ccc(-c4ccccc4)cc3)ncnc21 | = | 4.27
COC(=O)c1ccc(COc2ccc3c4c(c(=O)oc3c2)CCC4)o1 | = | 4.01
CCOC(=O)N1CCN(C(=O)CCc2c(C)nc3c(c(C)nn3-c3ccc(C)c(C)c3)c2C)CC1 | = | 4.56
COc1cc2c(cc1NC(=O)c1ccc3c(c1)OCO3)oc1ccccc12 [MLS000088875] | < | 2.00
O=C(c1ccccc1F)N(Cc1ccccc1)C1CCS(=O)(=O)C1 (stereo not given) [MLS000039394] | < | 2.00
CC(C)(O)P(C)(=O)c1ccccc1 (stereo not given) [2-[methyl(phenyl)phosphoryl]-2-propanol] | < | 2.00
N#Cc1c(NCCO)nc(NCc2ccccc2)c2c1CCN(Cc1ccccc1)C2 | = | 4.41
COc1cccc(C=Nn2c(C)nnc2C)c1OC | < | 2.00
CCc1nnc(NC(=O)CSc2nnc(COc3ccccc3)n2Cc2ccccc2)s1 | < | 2.00
CCOc1ncccc1C(=O)Nc1ccc2c(C)cc(=O)oc2c1 | < | 2.00

====

# pIC50 values compiled below
# target or system: Diphosphomevalonate decarboxylase (Streptococcus pneumoniae serotype 2 (strain D39 / NCTC 7466), UniProt A0A0H2ZN59)
# Sequence (A0A0H2ZN59 whole entry): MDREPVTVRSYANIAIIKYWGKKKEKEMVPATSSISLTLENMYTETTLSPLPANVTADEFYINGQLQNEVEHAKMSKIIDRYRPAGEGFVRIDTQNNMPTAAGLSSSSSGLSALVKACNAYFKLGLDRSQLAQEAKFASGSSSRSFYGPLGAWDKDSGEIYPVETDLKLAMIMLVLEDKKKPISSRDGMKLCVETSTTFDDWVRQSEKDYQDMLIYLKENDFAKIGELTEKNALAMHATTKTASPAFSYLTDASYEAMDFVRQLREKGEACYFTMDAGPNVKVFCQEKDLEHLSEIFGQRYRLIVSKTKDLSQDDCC
# test summary: diphosphomevalonate decarboxylase inhibition dose curves – biochemical, PK/LDH-coupled NADH fluorescence, hexokinase coupling counter-screen, dose response (AID 550)
pIC50: −log10 of the molar value.

compound | pIC50
COC(=O)c1[nH]c2cccc(OC)c2c1NC(=O)CCN1CCN(c2ccccc2OC)CC1 [MLS000040529] | 4.56
Cc1ccc(C)c(-c2nc3cc(N)ccc3o2)c1 | 5.22
Cc1c(C(=O)NC2CC2)oc2ccc(S(=O)(=O)N3CCCCCC3)cc12 | < 2.00
Cc1ccc(S(=O)(=O)N2CCOCC(=O)NCCOCCNC(=O)COCC2)cc1 | < 2.00
Cc1c(C(=O)NCC2CCCO2)sc2nc(-c3ccccc3)cn12 (centres undefined) | < 2.00
CN(C)C(=O)Nc1cnc2ccccc2c1 [1,1-dimethyl-3-(3-quinolinyl)urea] | < 2.00
COCCn1nnnc1CN(Cc1cccnc1)Cc1cc2cc(OC)ccc2[nH]c1=O | < 2.00
COCCOC(=O)c1c(C)oc2ccc(NS(=O)(=O)c3ccc(F)cc3)cc12 | < 2.00
CCN(CC)C(=O)c1sc2[nH]c(-c3ccccn3)nc(=O)c2c1C | 4.52
Cc1cc(N2CCN(C3CCCC3)CC2)n2nc(C)c(-c3ccccc3)c2n1 | < 2.00
Clc1c(-c2nnc3n2CCC3)sc2ccccc12 | < 2.00
Cc1ccccc1Cn1cc(NC(=O)c2cc3nc(-c4ccco4)cc(C(F)(F)F)n3n2)cn1 | 4.50
O=C(Nc1ccc(N2CCCCC2)cc1)c1cccnc1 [MLS000074324] | < 2.00
CCCN(CC(=O)c1cc(C)n(C)c1C)S(=O)(=O)c1cccc(C(F)(F)F)c1 [MLS000055141] | < 2.00

====

# target or system: Diphosphomevalonate decarboxylase (Streptococcus pneumoniae serotype 2 (strain D39 / NCTC 7466), UniProt A0A0H2ZN59)
# test summary: diphosphomevalonate decarboxylase inhibition dose curves – biochemical, PK/LDH-coupled NADH fluorescence, hexokinase coupling counter-screen, dose response (AID 550)
# IC50 values compiled below

smiles text | IC50
Cc1cc(-c2ccccc2)nc2cc(C(N)=O)nn12 | > 10000 µM
CN1CCN(CCNC(=O)c2cc3c(=O)n(C)c4ccccc4c3n2C)CC1 | 751 µM
CC(C)/N=c1/cc2n(-c3ccc(Cl)cc3)c3ccccc3nc-2cc1Nc1ccc(Cl)cc1 | 2.89 µM
Cc1cc(C)n2nc3nc(N4CCCCC4)nc(-c4ccco4)c3c2n1 | 111 µM
C/C=C/Cn1c(N(C)Cc2ccccc2)nc2c1c(=O)[nH]c(=O)n2C | > 10000 µM
Cc1cccc(C(=O)Nc2cc(=O)n(C)c(=O)n2C)c1 | > 10000 µM
CCOC(=O)c1sc2nc(SCC(=O)NCc3ccco3)n(Cc3ccccc3)c(=O)c2c1C | 84.7 µM
COc1ccc(C(=O)NCc2cn3c(C)csc3n2)cc1OC | > 10000 µM

====

# target or system: Diphosphomevalonate decarboxylase (Streptococcus pneumoniae serotype 2 (strain D39 / NCTC 7466), UniProt A0A0H2ZN59)
# test summary: diphosphomevalonate decarboxylase inhibition dose curves – biochemical, PK/LDH-coupled NADH fluorescence, hexokinase coupling counter-screen, dose response (AID 550)
pIC50: −log10 of the molar value.
# pIC50 values compiled below
measured property: pIC50

molecule | value
CSc1ncc(Cl)c(C(=O)Nc2nnc(SC)s2)n1 | < 2.00
CCOC(=O)C1=C(C)N=C(C)C(C(=O)OCC)C1c1cc2ccc(C)cc2[nH]c1=O (stereo unspecified) | 3.83
CCCC(=O)Nc1ccc(N2CCN(C(=O)CCC)CC2)cc1 [MLS000034431] | < 2.00
CCn1c(SCC(=O)Nc2cccc(C(C)=O)c2)nnc1C(C)C [MLS000073205] | < 2.00
COc1cc(NC(=O)c2ccco2)c(OC)cc1NC(=O)CCC(=O)Nc1cc(C)ccc1C [MLS000072545] | < 2.00
CCOc1cc2[nH]c(=O)n(Cc3ccc(C(=O)NCCOC)cc3)c(=O)c2cc1OCC [MLS000120003] | 3.74
CCOC(=O)c1cc2c(=O)n3ccccc3nc2n(C(C)C)/c1=N\C(=O)c1ccncc1 | 4.82
CCOC(=O)c1[nH]c2ccc(OC)cc2c1NC(=O)CN1CCN(c2ccccn2)CC1 | < 2.00
CC1(C)CC(=O)c2cc(OCC(=O)N3CCN(c4ccccc4F)CC3)ccc2O1 | 4.43
CC(C)(CO)NC(=O)C(c1ccccc1)c1ccccc1 [MLS000062471] | < 2.00
CN(C)Cc1nc2ccccc2c(=O)n1Cc1nc(-c2cc3ccccc3o2)cs1 | < 2.00
CCC(=O)Nc1nnc(Sc2ccc(N(C)C)cc2)s1 [MLS000109846] | < 2.00
CC(C)CC(=O)NCC(C)NC(=O)CC(C)C (stereo unspecified) | < 2.00
CCc1c(C)c(C#N)c2nc3ccccc3n2c1Nc1c(C)n(C)n(-c2ccccc2)c1=O | < 2.00
COCCNC(=O)C(C#N)c1nc2ccccc2nc1N1CCCCCC1 (stereo unspecified) | 3.72
Cc1ccsc1C1C(C(=O)O)c2ccccc2C(=O)N1C (stereo unspecified) | < 2.00
